The reported numbers originate from the supplement of paper PMC9732359.

experimentDescription: protein stability index of a GFP-peptide fusion (yeast GPS) (PSI 1-4); higher = more stable; sorted into four equal gates, so the index is relative within each strain
measurementContext: pdr5∆
Give protein stability index for every item shown.
In your answer, state the number alone without any accompanying words.

INPUT: Find the recorded protein stability index belonging to DYLFHLLISLNILFSLW [YLR018C/POM34] and report it.
OUTPUT: 1.34

INPUT: Query VPTLEAKRDYIISRLNA [FAS1] next
OUTPUT: 3.35

INPUT: Query HEDLVNSIESKNLSLQT [COR1] next
OUTPUT: 2.96

INPUT: Query IKAFMDSTIGNSKVDMK [IRR1] next
OUTPUT: 2.45

INPUT: Query IKTRTVHELSKRVHTLL [ISW2] next
OUTPUT: 1.49

INPUT: Query SNEIKVTNDLDTSAEKD [SIR4] next
OUTPUT: 3.35

INPUT: Query NWLSIFNDFSNIKTSEW [REC8] next
OUTPUT: 2.95

INPUT: Query THPKDTFYITREKYNMK [ARP9] next
OUTPUT: 3.09

INPUT: Query LKQDLKKISSFKSLIDE [YGL172W/NUP49] next
OUTPUT: 2.79

INPUT: Query WIKFLLHTLYLRPASAI [SSN8] next
OUTPUT: 1.29

INPUT: Query DRSASRAVFLFRCKETH [RPC82] next
OUTPUT: 3.07

INPUT: Query AKRNLDANPSSQIIARN [SMC2] next
OUTPUT: 2.79

INPUT: Query IRKLLEKINRMIIFLKN [CSI1] next
OUTPUT: 1.5

INPUT: Query GNASLKYIALQVIVDIF [YCG1] next
OUTPUT: 1.36

INPUT: Query IVAAGGGSGAATFSVSQ [CSL4] next
OUTPUT: 3.47

INPUT: Query CANCVKERIVRAFLIEE [RPL34B] next
OUTPUT: 3.47

INPUT: Query SIGSDILTAEKMRGNGN [RRP4] next
OUTPUT: 3.39

INPUT: Query DPIWQHQSLGPDGLGEV [RET1] next
OUTPUT: 3.13

INPUT: Query DSEKRNKYAAMLTSENA [RRP45] next
OUTPUT: 3.02

INPUT: Query NHSNNDIPTIADEHFWA [BRN1] next
OUTPUT: 3.11

INPUT: Query KTLVALEKQEDYIDNLV [RPC37] next
OUTPUT: 2.97

INPUT: Query EGTRNRFSYSPPKEGNY [YMR129W/POM152] next
OUTPUT: 3.06

INPUT: Query NEETFTVPELEIPTQIY [ARP9] next
OUTPUT: 2.77
